Where these numbers come from: ChEMBL document CHEMBL1133209

Molecular target: Beta-1 adrenergic receptor (Homo sapiens)
Sequence (P08588 whole entry): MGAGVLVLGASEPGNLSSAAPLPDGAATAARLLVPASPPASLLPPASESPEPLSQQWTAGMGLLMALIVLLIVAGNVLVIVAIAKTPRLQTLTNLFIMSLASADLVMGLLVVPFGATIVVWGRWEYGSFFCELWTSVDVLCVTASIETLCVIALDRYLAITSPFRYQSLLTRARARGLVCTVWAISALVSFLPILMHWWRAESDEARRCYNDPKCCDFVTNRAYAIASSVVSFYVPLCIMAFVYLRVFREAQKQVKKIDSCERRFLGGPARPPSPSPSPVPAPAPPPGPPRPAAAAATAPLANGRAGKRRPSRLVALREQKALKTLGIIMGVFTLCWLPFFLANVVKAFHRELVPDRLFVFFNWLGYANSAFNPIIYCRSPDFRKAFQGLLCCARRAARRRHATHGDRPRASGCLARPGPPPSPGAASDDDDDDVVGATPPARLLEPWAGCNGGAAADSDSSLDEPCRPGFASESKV
Experiment: Binding affinity to recombinant human beta-1 adrenergic receptor expressed in CHO cells in the presence of [125I]iodocyanopindolol
// assign condition met if IC50 falls strictly below 2 µM, else condition not met (ties count as condition not met)

### Prompt Does the reported IC50 of the following compound sit strictly below 2 µM? "O=S(=O)(Nc1ccc(CCNC[C@H](O)c2cccnc2)cc1)c1ccc(-c2nc(Cc3ccc(F)c(F)c3)no2)cc1"
### Response condition not met

### Prompt Bench note: check whether "O=S(=O)(Nc1ccc(CCNC[C@H](O)c2cccnc2)cc1)c1ccc(-c2noc(Cc3ccc(F)cc3)n2)cc1" shows IC50 below 2 µM
### Response condition not met

### Prompt Given the entry "O=S(=O)(Nc1ccc(CCNC[C@H](O)c2cccnc2)cc1)c1ccc(-c2noc(COc3ccc4ccccc4c3)n2)cc1" , would its reported IC50 be below 2 µM?
### Response condition not met

### Prompt Dear colleague, could you confirm whether IC50 of CNC(=O)NC(c1ccc(F)cc1)c1nc(-c2ccc(S(=O)(=O)Nc3ccc(CCNC[C@H](O)c4cccnc4)cc3)cc2)no1 (stereo partly specified) falls below 2 µM? Thanks.
### Response condition not met

### Prompt Does this compound meet the criterion IC50 < 2 µM? "O=S(=O)(Nc1ccc(CCNC[C@H](O)c2cccnc2)cc1)c1ccc(-c2noc(Cc3ccc(-c4ccccn4)cc3)n2)cc1"
### Response condition not met

### Prompt Does this compound meet the criterion IC50 < 2 µM? NC(c1ccc(F)cc1)c1nc(-c2ccc(S(=O)(=O)Nc3ccc(CCNC[C@H](O)c4cccnc4)cc3)cc2)no1 (stereo partly specified)
### Response condition not met

### Prompt Lab note: confirm whether the reported IC50 for this compound is below 2 µM, equality not counting. compound: "CC(=O)Nc1ccc(Cc2nc(-c3ccc(S(=O)(=O)Nc4ccc(CCNC[C@H](O)c5cccnc5)cc4)cc3)no2)cc1"
### Response condition not met

### Prompt Problem: For the compound "O=S(=O)(Nc1ccc(CCNC[C@H](O)c2cccnc2)cc1)c1ccc(-c2nc(Cc3ccc(F)cc3)no2)cc1" , is IC50 under 2 µM?
### Response condition not met

### Prompt Hello, I'm reviewing records and need to know if IC50 of "O=S(=O)(Nc1ccc(CCNC[C@H](O)c2cccnc2)cc1)c1ccc(-c2noc(COc3ccccc3O)n2)cc1" is below 2 µM. Could you check?
### Response condition not met

### Prompt Check if IC50 falls below 2 µM for "O=S(=O)(Nc1ccc(CCNC[C@H](O)c2cccnc2)cc1)c1ccc(-c2nc(COc3ccc(F)cc3)no2)cc1" .
### Response condition not met

### Prompt A record lists "O=S(=O)(Nc1ccc(CCNC[C@H](O)c2cccnc2)cc1)c1ccc(-c2noc(COc3ccc(C4N=NN=N4)cc3)n2)cc1" . Is its IC50 below 2 µM?
### Response condition not met

### Prompt Please indicate whether the reported IC50 of "O=S(=O)(Nc1ccc(CCNC[C@H](O)c2cccnc2)cc1)c1ccc(-c2noc(COc3ccc(OC(F)(F)F)cc3)n2)cc1" is strictly below 2 µM.
### Response condition met

### Prompt Threshold test, IC50 < 2 µM: "O=S(=O)(Nc1ccc(CCNC[C@H](O)c2cccnc2)cc1)c1ccc(-c2noc(Cc3ccc(OC(F)(F)F)cc3)n2)cc1"
### Response condition met
